# Tgt: T1, 4H3631-bA
# T1 chain: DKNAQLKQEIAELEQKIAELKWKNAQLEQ
# Experimental Details: two-hybrid library CCNG1;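 also: natural log of median RNA to DNA barcode read ratio; higher means stronger binding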
Assay Endpoint: interaction score

Some entries whose results are on file:
Q: Could you tell me which interaction score is on file for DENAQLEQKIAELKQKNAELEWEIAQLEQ [4H1393-bA] ?
Result: -0.847

Q: One more binder: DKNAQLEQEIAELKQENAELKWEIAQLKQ [4H3162-bA]
Result: -1.48

Q: Note, next up: DKNAQLKQEIAELEQKIAELKWKNAQLEQ [4H3631-bA]
Result: 0.816

Q: Check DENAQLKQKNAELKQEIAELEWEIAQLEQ [4H1985-bA] too.
Result: -1.21

Q: Next record, please: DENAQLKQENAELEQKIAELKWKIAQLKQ [4H1710-bA]
Result: 1.48

(A) DKNAQLEQEIAELKQKIAELEWENAQLKQ [4H3172-bA]
(B) DKNAQLEQEIAELEQKNAELKWEIAQLEQ [4H3129-bA]
(C) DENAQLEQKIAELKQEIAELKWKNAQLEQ [4H1359-bA]
Q: hey, can you rank those binders up there by interaction score? biggest number first please Form entry: ranked labels (order as requested).
Result: C, A, B
